- assay explanation: Solubility of the compound in water
- Format: physicochemical
readout type: solubility

1) CCn1c2ccccc2c2cc(CNCCCNCc3cc4c5ccccc5n(CC)c4c(-c4cc(OC)c(OC)c(OC)c4)n3)nc(-c3cc(OC)c(OC)c(OC)c3)c21.Cl : > 10000 µg/mL
2) Cc1nc(CNCCCNCc2cc3c4ccccc4n(Cc4cccc(Cl)c4)c3c(C)n2)cc2c3ccccc3n(Cc3cccc(Cl)c3)c12.Cl : > 10000 µg/mL
3) COc1cc(-c2nc(CNCCCCCCNCc3cc4c5ccccc5n(CCCc5ccccc5)c4c(-c4cc(OC)c(OC)c(OC)c4)n3)cc3c4ccccc4n(CCCc4ccccc4)c23)cc(OC)c1OC.Cl : > 10000 µg/mL
